Assign protein stability index to each entry below.
B1: FAM107A (parent)
chain: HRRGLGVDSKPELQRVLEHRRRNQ

- Variants of: B1
- testDetails: protein stability index of a GFP-peptide fusion (GPS, HEK-293T) (PSI 1-6); higher = more stable;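 further: lentivirally expressed fusions sorted by FACS into six bins by GFP to DsRed ratio, PSI derived from sequencing read proportions per bin multiplied by bin number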
- conditionsUsed: c terminus: a fixed tail appended
// print number alone

Given R3I , state its recorded protein stability index.
4.29

Quick one: R2D
5.11

Please answer likewise for K10T
4.38

And E12K ?
4.18

Can you check H19K next?
4.29

Further, for Q24T ?
3.78

Please do the same for D8I as well.
3.74

Subsequent entry: H1V
4.43

Now consider H19Y and answer again.
3.72

// repeat for N23Q and report
3.14

Please give the result for D8N too.
3

Now try D8F .
2.23

// next record Q14F
3.62

Same question, D8V this time
4.07

Repeat with R20T
4.42

What about Q14C ?
4.03

Field entry: R15F
4.19

Now this one: S9A
2.99

Param item: G4K
5.72

What do you have for H1W ?
3.11

Could you do the same for H19R , please?
4.54

One more variant: G6P
4.63

Consider next the variant Q24I in the same way.
2.4

Request: G4P
4.8

For G6Y then?
3.5

Cool, now D8T
4.41

Can you check R20S next?
4.27

And Q14Y ?
3.15

Same question, V7H this time
2.61

Another variant to look at: E18Y
4.17

Cool, now N23I
2.32

Subsequent entry: H19I
4.04

Request: R21I
3.86

Can you check Q14G next?
4.8

How about this variant: V16A
4.83

What would you report for R20M ?
4.04

Query L17A next
4.92

Continue with R15N
4.29

Please answer likewise for Q24C
3.59

Do the same for K10H please
4.18

Follow-up entry: K10A
4.56

How about this variant: R21T
3.48

meta.source: the supplement of paper PMC10567573
